Recorded IC50 for the following compounds
Biological target: UniProt P00734
Assay: Thrombin 1536 HTS Dose Response Confirmation. [Related pubchem assays: 1046 (Thrombin 1536 HTS; hits were confirmed in this assay)]
Format: functional
Calls of active or inactive are those of the source.

Consider the following illustrative entries.
| Smiles Record | Measured On | IC50 |
| --- | --- | --- |
| O=C(O)C1CCN(c2ccc(Cl)nn2)CC1 | UniProt P00734 | > 50 µM (not active) |
| CCOC(=O)c1c(C)n(C(=O)c2ccco2)c(=O)n1C(=O)c1ccco1 | UniProt P00734 | 0.533 µM (active) |
| COc1ccccc1NC(=O)c1sc2ncn(Cc3ccc(C)cc3)c(=O)c2c1C | UniProt P00734 | > 50 µM (not active) |

Input Nc1nc2ccccc2n1C(=O)c1ccco1 . Output IC50: > 50 µM (not active)

Input O=C(Nc1ccc(F)cc1F)c1ccc(-n2cncn2)nc1 . Output IC50: > 50 µM (not active)

Input COc1ccc(-c2ccc(CCC(=O)O)n2-c2ccccc2O)cc1 . Output IC50: 10.5 µM (active)

Input COCCNC(=S)NN=C1CCCCCC1 . Output IC50: > 50 µM (not active)

###

Test: THP-1 cell cytotoxicity, dose response, cytotoxicity control for Vif-APOBEC3G degradation inhibitor project, THP-1 cells (AID 1117359)
Assay type: functional
Conditions: Human immunodeficiency virus 1, THP-1
Active and inactive are the calls of the source.
Measurement Label: CC50

Input CCOC(=O)c1c(C)c(/C=N/Nc2ccccc2)n(C)c1C . Output CC50: > 40 µM (active)

###

Biological target: Streptokinase A (Streptococcus pyogenes serotype M1)
Sequence (P10520 whole entry): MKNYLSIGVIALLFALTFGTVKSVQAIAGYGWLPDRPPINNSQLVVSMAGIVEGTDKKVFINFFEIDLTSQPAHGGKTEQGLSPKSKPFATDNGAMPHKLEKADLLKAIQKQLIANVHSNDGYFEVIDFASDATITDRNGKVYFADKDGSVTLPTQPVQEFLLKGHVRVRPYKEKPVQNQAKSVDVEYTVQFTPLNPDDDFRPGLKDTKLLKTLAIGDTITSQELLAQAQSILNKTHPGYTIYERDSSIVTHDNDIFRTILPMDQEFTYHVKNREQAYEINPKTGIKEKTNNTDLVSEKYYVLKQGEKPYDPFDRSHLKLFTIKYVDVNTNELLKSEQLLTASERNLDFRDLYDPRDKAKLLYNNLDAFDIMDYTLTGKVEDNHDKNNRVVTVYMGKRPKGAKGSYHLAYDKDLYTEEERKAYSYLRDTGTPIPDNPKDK
Test: S. pyogenes streptokinase expression inhibitors, potency, dose response, plasminogen activation absorbance, OD405 (AID 1914);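 note: secreted streptokinase activity via plasminogen activation per viability signal from cell pellet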
Assay type: functional, Streptococcus pyogenes M1 GAS
Calls of active or inactive are those of the source.
Recorded EC50 for the following molecules

Input Cc1cc(Oc2ccc(-c3ccccc3)cc2)nc(N2CCOCC2)n1 . Output EC50: 35.4 µM (active)

Input CCC(C)Sc1cc(C(F)(F)F)c(C(=O)Nc2ccc(Cl)cc2)cn1 (stereo not drawn) . Output EC50: 2.38 µM (active)

Input CN(C)c1ccc(/C=C/c2ccc3ccccc3[n+]2C)cc1 . Output EC50: > 150 µM (not active)

Input COc1ccc(N=Nc2cc(-c3ccccc3)ccc2O)cc1 . Output EC50: 7.22 µM (active)

Input [O-][n+]1cccc2c(Br)cc(Br)c(O)c21 . Output EC50: > 150 µM (not active)

###

Target: Luciferin 4-monooxygenase (Photinus pyralis, UniProt P08659)
Sequence (P08659 whole entry): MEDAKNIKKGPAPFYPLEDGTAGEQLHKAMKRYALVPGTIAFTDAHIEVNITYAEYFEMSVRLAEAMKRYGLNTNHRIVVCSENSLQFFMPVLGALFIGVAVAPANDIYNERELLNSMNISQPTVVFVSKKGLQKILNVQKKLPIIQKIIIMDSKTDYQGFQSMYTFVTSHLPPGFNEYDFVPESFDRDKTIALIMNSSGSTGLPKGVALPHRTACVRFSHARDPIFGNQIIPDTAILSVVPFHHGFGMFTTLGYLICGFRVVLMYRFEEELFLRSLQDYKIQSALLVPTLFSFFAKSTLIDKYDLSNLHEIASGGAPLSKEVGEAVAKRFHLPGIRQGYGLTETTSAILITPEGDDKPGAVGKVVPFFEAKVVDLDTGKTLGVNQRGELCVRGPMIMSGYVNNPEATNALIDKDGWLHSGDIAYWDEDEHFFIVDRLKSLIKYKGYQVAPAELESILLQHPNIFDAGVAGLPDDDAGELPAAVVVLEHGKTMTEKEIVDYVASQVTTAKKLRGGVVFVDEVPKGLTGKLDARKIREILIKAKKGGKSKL
Assay: firefly luciferase enzyme inhibitors, dose response, biochemical, luminescence (AID 1891)
The source made the active and inactive calls.
Recorded EC50 for the following compounds

Consider the following illustrative entries.
| Compound | Measured On | EC50 |
| --- | --- | --- |
| COc1ccc(/C=N/N(C)c2cc(=O)n(C)c(=O)[nH]2)cc1OC | Luciferin 4-monooxygenase (Photinus pyralis, UniProt P08659) | > 112 µM (not active) |
| COc1ccccc1NC(=O)C1=C(C)Nc2nnnn2C1c1ccccc1OC (stereo unspecified) | Luciferin 4-monooxygenase (Photinus pyralis, UniProt P08659) | > 112 µM (not active) |
| Cn1c(SCC(=O)N2CCCC2)nnc1-c1cccs1 | Luciferin 4-monooxygenase (Photinus pyralis, UniProt P08659) | > 112 µM (not active) |
| CCCOc1cccc(-c2cc(C(=O)NN=C(S)NCC)c3ccccc3n2)c1 | Luciferin 4-monooxygenase (Photinus pyralis, UniProt P08659) | 1.41 µM (active) |
| COc1ccc(-c2nc(-c3cccs3)no2)cc1 | Luciferin 4-monooxygenase (Photinus pyralis, UniProt P08659) | 1.59 µM (active) |

// EC50 (Luciferin 4-monooxygenase (Photinus pyralis, UniProt P08659)) for Cc1cc(NC(=O)c2cc3ncc(Br)cn3n2)no1 = > 112 µM (not active)
